Would you mind telling me the reported MIC of each entry?
system: Staphylococcus epidermidis; assay: Antibacterial activity against penicillin-resistant Staphylococcus epidermidis clinical isolates after 24 hrs by broth microdilution method; format: functional
Kindly provide the numeric value in mg/L only, without the unit symbol.

The reported MIC of the compound Cc1nc2ccccc2n1C(=O)/C=C/c1ccc(Cl)cc1 was 16

The reported MIC of the compound COc1ccc(/C=C/C(=O)n2c(C)nc3ccccc32)cc1 was 32

* * *

Would you mind telling me the reported MIC of each entry?
tested on: Staphylococcus epidermidis; experiment: Antibacterial activity against penicillin-resistant Staphylococcus epidermidis clinical isolates after 24 hrs by broth microdilution method; assay type: functional

Field MIC (Staphylococcus epidermidis), entry COc1ccc(NC(=O)/C=C/c2ccc(Cl)cc2Cl)cc1 : > 128 µg/mL

Field MIC (Staphylococcus epidermidis), entry COc1ccc(/C=C/C(=O)N2CCOCC2)cc1OC : > 128 µg/mL

Field MIC (Staphylococcus epidermidis), entry COc1cc(/C=C/C(=O)N2CCOCC2)cc(OC)c1OC : > 128 µg/mL

Field MIC (Staphylococcus epidermidis), entry O=C(O)/C=C/c1ccccc1 [CINNAMIC ACID] : > 128 µg/mL

Field MIC (Staphylococcus epidermidis), entry CCCCCCNC(=O)/C=C/c1ccc(Cl)cc1Cl : > 128 µg/mL

Field MIC (Staphylococcus epidermidis), entry CCN(CC)C(=O)/C=C/c1ccc(Cl)cc1Cl : 32 µg/mL

* * *

Would you mind telling me the reported MIC of each entry?
tested on: Staphylococcus epidermidis; assay: Antibacterial activity against penicillin-resistant Staphylococcus epidermidis clinical isolates after 24 hrs by broth microdilution method; type: functional

The reported MIC of the molecule Cc1nc2ccccc2n1C(=O)/C=C/c1ccccc1Cl was 4 µg/mL

The reported MIC of the molecule COc1ccc(/C=C/C(=O)n2c(C)nc3ccccc32)cc1OC was > 128 µg/mL

The reported MIC of the molecule Cc1nc2ccccc2n1C(=O)/C=C/c1ccccc1 was 32 µg/mL

The reported MIC of the molecule Cc1nc2ccccc2n1C(=O)/C=C/c1ccc(F)cc1 was 16 µg/mL

The reported MIC of the molecule O=C(/C=C/c1ccc(F)cc1)N1CCOCC1 was > 128 µg/mL

The reported MIC of the molecule COc1ccccc1/C=C/C(=O)N1CCN(C(c2ccccc2)c2ccc(Cl)cc2)CC1 (stereo unspecified) was > 128 µg/mL

The reported MIC of the molecule CCN(CC)C(=O)/C=C/c1ccc(OC)c(OC)c1 was > 128 µg/mL

The reported MIC of the molecule Cc1nccn1-c1cc(NC(=O)/C=C/c2ccc([N+](=O)[O-])cc2)cc(C(F)(F)F)c1 was > 128 µg/mL

The reported MIC of the molecule Cc1nc2ccccc2n1C(=O)/C=C/c1ccc(Cl)cc1Cl was 4 µg/mL

The reported MIC of the molecule O=C(/C=C/c1ccc(Cl)cc1Cl)N1CCOCC1 was 64 µg/mL

The reported MIC of the molecule O=C(/C=C/c1ccccc1Cl)N1CCN(C(c2ccccc2)c2ccc(Cl)cc2)CC1 (stereo unspecified) was > 128 µg/mL

* * *

Would you mind telling me the reported MIC of each entry?
system: Escherichia coli; assay: microbe, parasite or virus in culture; format: functional; conditions: ATCC 25922, 5 h
Description: Inhibition of cell division in penicillin-susceptible Escherichia coli ATCC 25922 assessed as filamentation after 5 hrs by phase contrast microscopy

The reported MIC of the compound O=C(/C=C/c1ccc(Cl)cc1Cl)N1CCN(C(c2ccccc2)c2ccc(Cl)cc2)CC1 (configuration not stated) was > 128 µg/mL

The reported MIC of the compound COc1cc(/C=C/C(=O)n2c(C)nc3ccccc32)cc(OC)c1OC was > 128 µg/mL

The reported MIC of the compound CCCNC(=O)/C=C/c1ccc([N+](=O)[O-])cc1 was > 128 µg/mL

The reported MIC of the compound O=C(/C=C/c1ccc(Cl)cc1Cl)N1CCOCC1 was > 128 µg/mL

The reported MIC of the compound C#CCNC(=O)/C=C/c1ccc(OC)c(OC)c1 was > 128 µg/mL

The reported MIC of the compound COc1ccccc1/C=C/C(=O)n1c(C)nc2ccccc21 was 128 µg/mL

The reported MIC of the compound O=C(O)c1cn(C2CC2)c2cc(N3CCNCC3)c(F)cc2c1=O [CIPROFLOXACIN] was > 128 µg/mL

The reported MIC of the compound CCCCNC(=O)/C=C/c1ccc([N+](=O)[O-])cc1 was > 128 µg/mL

The reported MIC of the compound COc1ccc(/C=C/C(=O)N2CCOCC2)cc1OC was 128 µg/mL

The reported MIC of the compound CCCNC(=O)/C=C/c1ccc(Cl)cc1Cl was > 128 µg/mL

The reported MIC of the compound COc1cc(/C=C/C(=O)N2CCOCC2)cc(OC)c1OC was 128 µg/mL

The reported MIC of the compound Cc1nc2ccccc2n1C(=O)/C=C/c1ccc(F)cc1 was > 128 µg/mL
